# Protocol text: Cytotoxicity against HEL cells infected with Cytomegalovirus assessed as alteration in cell morphology by microscopic method
# Type: cell-based
# Run conditions: human, HEL cells infected with Cytomegalovirus
This listing pairs compounds with measured MCC.
Property measured: MCC (µM)

Compound | Unit symbol | Readout relation | Result number
Nc1ccn(C[C@@H](CO)OCP(=O)(O)O)c(=O)n1 | µM | > | 300
CCOP(=O)(OCC)C1CC(Cn2c(=O)n(C(=O)c3ccc(F)cc3)c(=O)c3ccccc32)ON1Cc1ccccc1 (mixture of isomers) | µM | = | 20
CCOP(=O)(OCC)[C@@H]1C[C@@H](Cn2c(=O)n(Cc3ccccc3F)c(=O)c3ccccc32)ON1Cc1ccccc1 (relative stereo) | µM | = | 20
CCOP(=O)(OCC)[C@H]1C[C@@H](Cn2c(=O)n(C(=O)c3ccccc3)c(=O)c3ccccc32)ON1C | µM | = | 100
CCOP(=O)(OCC)C1CC(Cn2c(=O)n(Cc3ccccc3)c(=O)c3ccccc32)ON1Cc1ccccc1 (mixture of isomers; cis) | µM | = | 100
CCOP(=O)(OCC)C1CC(Cn2c(=O)n(C(=O)c3ccccc3F)c(=O)c3ccccc32)ON1C (mixture of isomers) | µM | = | 100
CCOP(=O)(OCC)[C@H]1C[C@@H](Cn2c(=O)n(C(=O)c3ccc(F)cc3)c(=O)c3ccccc32)ON1C (relative stereo) | µM | = | 100
CCOP(=O)(OCC)C1CC(Cn2c(=O)n(Cc3ccccc3F)c(=O)c3ccccc32)ON1Cc1ccccc1 (stereo not drawn) | µM | = | 100
Nc1nc(O)c2ncn(COC(CO)CO)c2n1 | µM | > | 350
CCOP(=O)(OCC)[C@H]1C[C@@H](Cn2ccc(=O)n(C(=O)c3ccccc3)c2=O)ON1C | µM | = | 100
CCOP(=O)(OCC)[C@@H]1C[C@@H](Cn2c(=O)n(C(=O)c3cccc(F)c3)c(=O)c3ccccc32)ON1C (relative stereo) | µM | = | 100
CCOP(=O)(OCC)[C@H]1C[C@@H](Cn2c(=O)n(C(=O)c3ccccc3)c(=O)c3ccccc32)ON1Cc1ccccc1 (relative stereo) | µM | = | 100
CCOP(=O)(OCC)[C@@H]1C[C@@H](Cn2c(=O)n(C(=O)c3ccccc3)c(=O)c3ccccc32)ON1C | µM | = | 100
